test: In vivo blood elimination kinetics; set-up: species or system female Sprague-Dawley rats; conditions: female, Sprague-Dawley, rat, blood, iv, 5 mg kg^−1, rats
Measurement Type: AUC
Note: a bare number is incomplete; add the unit.

Q. // returns reported AUC for input CC1(C)C(/C=C/C=C/C=C/C=C2\N(CCCCS(=O)(=O)O)c3ccc4ccccc4c3C2(C)C)=[N+](CCCCS(=O)(=O)[O-])c2ccc3ccccc3c21 [free ICG, indocyanine green]
A. 12100 ng·h/mL

###

assay: In vivo blood elimination kinetics; set-up: species or system female Sprague-Dawley rats; conditions: female, Sprague-Dawley, rat, blood, iv, 5 mg kg^−1, rats
Measurement Type: half-life (min)
Give the number; min is assumed, so skip it.

Q. // returns reported half-life for input CC1(C)C(/C=C/C=C/C=C/C=C2\N(CCCCS(=O)(=O)O)c3ccc4ccccc4c3C2(C)C)=[N+](CCCCS(=O)(=O)[O-])c2ccc3ccccc3c21 [free ICG, indocyanine green]
A. 5.22
